Exercise: state measured Ki for each of the molecules provided.
target: human Factor Xa (Homo sapiens); construct: This complex converts factor X to Xa; assay: Factor Xa assay (Ki, chromogenic substrate S-2222)
Sequence (P00742 235-488 limits assumed): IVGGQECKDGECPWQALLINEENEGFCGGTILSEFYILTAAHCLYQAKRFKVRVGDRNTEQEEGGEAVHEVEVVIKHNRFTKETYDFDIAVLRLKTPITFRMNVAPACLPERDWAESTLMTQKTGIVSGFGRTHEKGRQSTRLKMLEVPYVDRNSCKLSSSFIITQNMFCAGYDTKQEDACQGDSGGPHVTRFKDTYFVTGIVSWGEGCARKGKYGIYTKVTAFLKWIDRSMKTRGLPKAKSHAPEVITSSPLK
Sequence (P00742 41-179 limits assumed): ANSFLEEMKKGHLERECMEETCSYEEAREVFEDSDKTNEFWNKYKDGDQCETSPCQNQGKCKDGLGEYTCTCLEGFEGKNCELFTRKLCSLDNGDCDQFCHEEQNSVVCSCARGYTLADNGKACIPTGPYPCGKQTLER
Give a bare numeral; the unit nM is implied.

Query: What value of measured Ki is listed for CCOc1cc(C(Nc2ccc(C(=N)N)cc2)C(=O)NS(=O)(=O)c2ccccc2)ccc1OC(C)C (stereo not shown) ?
Response: 898

Query: Queued: CCOc1cc(C(Nc2ccc(C(=N)N)cc2)C(=O)NS(=O)(=O)CC)ccc1OC(C)C (stereo not shown)
Response: 565

Query: Queued: CCCS(=O)(=O)NCC(Nc1ccc(C(=N)N)cc1)c1ccc(OC(CCl)c2ccccc2)c(OC)c1 (stereo not shown)
Response: 140

Query: Queued: CCCCS(=O)(=O)NC(=O)C(Nc1ccc(C(=N)N)cc1)c1ccc(OC(C)C)c(OCC)c1 (stereo not shown)
Response: 624

---

Exercise: state measured pKi for each of the compounds provided.
Target: Tissue Factor/factor VIIa (recombinant human factor VIIa, soluble Tissue Factor (1-219)) (Homo sapiens)
Construct: recombinant human factor VIIa (NB #25942-16); NB #25942-16
Sequence (P08709 213-466 limits assumed): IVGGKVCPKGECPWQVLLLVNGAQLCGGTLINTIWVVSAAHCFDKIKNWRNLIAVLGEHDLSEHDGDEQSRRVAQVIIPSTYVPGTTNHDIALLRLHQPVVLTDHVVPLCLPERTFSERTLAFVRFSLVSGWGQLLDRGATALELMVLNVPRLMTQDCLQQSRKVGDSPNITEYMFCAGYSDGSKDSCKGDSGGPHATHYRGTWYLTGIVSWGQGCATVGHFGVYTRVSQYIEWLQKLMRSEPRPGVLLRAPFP
Sequence (P08709 61-212 limits assumed): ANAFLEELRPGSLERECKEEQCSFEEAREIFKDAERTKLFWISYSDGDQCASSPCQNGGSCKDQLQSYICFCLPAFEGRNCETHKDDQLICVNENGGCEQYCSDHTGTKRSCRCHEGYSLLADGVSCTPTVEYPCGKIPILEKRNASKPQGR
Sequence (P13726 33-251 partner limits assumed): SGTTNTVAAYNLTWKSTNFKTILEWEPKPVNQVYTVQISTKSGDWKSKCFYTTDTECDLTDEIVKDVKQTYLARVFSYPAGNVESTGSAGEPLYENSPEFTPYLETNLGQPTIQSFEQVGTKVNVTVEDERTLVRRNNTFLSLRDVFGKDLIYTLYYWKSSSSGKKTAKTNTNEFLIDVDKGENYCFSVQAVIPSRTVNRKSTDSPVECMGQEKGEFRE
Test: Tissue Factor/Factor VIIa antagonist assay (Ki, chromogenic substrate Chromozym-tPA)
Settings: read-out: Ki(TFVIIa)
Method: Tissue Factor/Factor VIIa Antagonist Assay This procedure can be used to determine the constant of inhibition (Ki) for a sample compound of the invention. 1. Prepare a solution of 2 μg/mL (90 nM) tissue factor and 1.5 μg/mL (30 nM) factor VIIa in assay buffer with CaCl2. 2. Incubate for 15 minutes at room temperature. 3. Add 50 μL sample to each well. 4. Add 50 μL tissue factor/factor VIIa solution to each well. 5. […] 8. Monitor absorbance at 405 nm every 10 sec for a total of 5 minutes at room temperature. […]
Bear in mind: pKi is minus log10 of a mol/L concentration; give just that figure.

Query: What value of measured pKi is listed for CCOc1ccc(C(Nc2ccc(C(=N)N)cc2)C(=O)NS(=O)(=O)c2ccccc2)cc1OCC (stereo not shown) ?
Response: 8.30

Query: Queued: CCCS(=O)(=O)NCC(Nc1ccc(C(=N)N)cc1)c1cc(OCC)c(OCc2ccccc2)cc1NS(C)(=O)=O (stereo not shown)
Response: 8.40

Query: Queued: CCOc1cc(OCC)cc(C(Nc2ccc(C(=N)N)cc2)C(=O)NS(=O)(=O)c2ccccc2)c1 (stereo not shown)
Response: 8.15

Query: Queued: CCOc1cc(C(Nc2ccc(C(=N)N)cc2)C(=O)NS(=O)(=O)c2ccccc2)ccc1OC(C)C (stereo not shown)
Response: 8.52

---

Measured pKi on UniProt:P00734 follows.
Bear in mind: pKi is minus log10 of a mol/L concentration; give just that figure.

Query: What value of measured pKi is listed for COc1cc(C(CNS(=O)(=O)c2cccs2)Nc2ccc(C(=N)N)cc2)ccc1OCc1ccccc1 (stereo not drawn) ?
Response: 7.80

Query: Queued: CCOc1cc(C(Nc2ccc(C(=N)N)cc2)C(=O)NS(=O)(=O)c2ccccc2)ccc1OC(C)C (stereo not drawn)
Response: 6.95

Query: Queued: CCCS(=O)(=O)NCC(Nc1ccc(C(=N)N)cc1)c1ccc(OC(CCl)c2ccccc2)c(OC)c1 (stereo not drawn)
Response: 9.00

---

target: human Plasma Kallikrein (Homo sapiens, UniProt P03952); construct: Factor Xa, Thrombin, and Plasma Kallikrein Assays; assay: Plasma Kallikrein assay (Ki, chromogenic substrate S-2302)
Sequence (P03952 391-638 limits assumed): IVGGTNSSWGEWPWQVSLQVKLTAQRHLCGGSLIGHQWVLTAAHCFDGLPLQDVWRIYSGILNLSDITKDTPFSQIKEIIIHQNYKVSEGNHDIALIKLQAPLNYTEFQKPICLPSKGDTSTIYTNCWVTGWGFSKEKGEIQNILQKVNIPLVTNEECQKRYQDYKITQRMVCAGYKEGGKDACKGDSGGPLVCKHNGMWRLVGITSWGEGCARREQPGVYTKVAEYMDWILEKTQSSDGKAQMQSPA
Sequence (P03952 20-390 limits assumed): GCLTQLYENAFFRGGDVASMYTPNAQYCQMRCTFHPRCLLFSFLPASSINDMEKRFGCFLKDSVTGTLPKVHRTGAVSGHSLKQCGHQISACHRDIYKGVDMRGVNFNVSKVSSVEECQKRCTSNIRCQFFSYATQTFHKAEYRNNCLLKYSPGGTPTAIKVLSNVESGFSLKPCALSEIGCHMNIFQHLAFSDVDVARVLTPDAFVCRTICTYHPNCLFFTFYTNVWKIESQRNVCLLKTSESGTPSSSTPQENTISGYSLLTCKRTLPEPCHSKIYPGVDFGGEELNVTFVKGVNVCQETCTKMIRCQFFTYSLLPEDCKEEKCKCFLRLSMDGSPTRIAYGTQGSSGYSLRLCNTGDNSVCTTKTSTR
Test Readout: Ki
Note: a bare number is incomplete; add the unit.

Query: What value of measured Ki is listed for CCCS(=O)(=O)NCC(Nc1ccc(C(=N)N)cc1)c1cc(OCC)c(OC(C)C)cc1NS(C)(=O)=O (stereo not shown) ?
Response: 1 nM

Query: Queued: CCOc1cc(C(Nc2ccc(C(=N)N)cc2)C(=O)NS(=O)(=O)CC)ccc1OC(C)C (stereo not shown)
Response: 11 nM

Query: Queued: CCCS(=O)(=O)NCC(Nc1ccc(C(=N)N)cc1)c1cc(OCC)c(OCC(C)C)cc1NS(=O)(=O)CCC (stereo not shown)
Response: 1 nM

Query: Queued: CCOc1ccc(C(Nc2ccc(C(=N)N)cc2)C(=O)NS(=O)(=O)c2ccccc2)cc1OCC (stereo not shown)
Response: 2 nM
